# measurement target: UniProtKB O14842
# run description: FLIPR assay (agonist-induced calcium mobilization)
# assay setup: Human FLIPR EC50, nM or % activation (EC50 values), GPR40/CHO NFAT BLA cells
Values of EC50 strictly less than 200 nM map to Criterion met, and values of at least 200 nM map to Criterion not met.

Past entries and their recorded results:
{"molecule": "COc1ccc(F)c(-c2ccc(C3CCc4ccc(CCC(=O)O)cc4O3)cc2C2=CCCC2(C)C)c1 (racemic)", "qualitative label": "Criterion met"}
{"molecule": "CC#C[C@@H](CC(=O)O)c1ccc2c(c1)CCC(c1cc(-c3cc(OC)ccc3F)ccc1F)O2 (mixture of isomers)", "qualitative label": "Criterion met"}
{"molecule": "CC#C[C@@H](CC(=O)O)c1ccc2c(c1)CCC(c1cc(-c3cccnc3C(F)(F)F)ccc1F)O2 (single isomer, unassigned) [Example 36]", "qualitative label": "Criterion met"}
{"molecule": "CC#CC(CC(=O)O)c1ccc2c(c1)OC(c1ccc(-c3c(C)cccc3C)cc1)CC2 (single isomer, unassigned) [Example 53]", "qualitative label": "Criterion not met"}
{"molecule": "Cc1cccc(C)c1-c1cccc(C2CC(F)(F)c3cc(CCC(=O)O)ccc3O2)c1 (racemic)", "qualitative label": "Criterion not met"}

# evaluate next
Data request: For this molecule, is EC50 lower than 200 nM? CC#C[C@@H](CC(=O)O)c1ccc2c(c1)CCC(c1cccc(-c3cccc4c3c(C(F)(F)F)nn4C)c1)O2 (mixture of isomers) [Example 32]
Data returned: Criterion met

---

# Lookup of reported EC50 keyed by entry
# measurement target: human GPR40 (Homo sapiens)
# run description: Inositol Phosphate Turnover (IP1) Assay 1
# assay setup: Human IP1 Assay 1, EC50, nM, HEK cells stably expressing human GPR40
Your answer is read as nM, so omit the unit and give the number.

Reference set (3 entries):
{"molecule": "Cc1ccccc1-c1ccc(F)c(C2CCc3cc4c(cc3O2)OC[C@H]4CC(=O)O)c1 (stereo partly shown)", "EC50 [nM]": 1910}
{"molecule": "CC#C[C@@H](CC(=O)O)c1ccc2c(c1)CCC(c1cccc(-c3cccc4c3c(C(F)(F)F)nn4C)c1)O2 (single isomer, unassigned) [Example 41]", "EC50 [nM]": 175}
{"molecule": "Cc1cccc(C)c1-c1cccc(C2CCc3cc(CCC(=O)O)ccc3O2)c1 (stereo not shown) [Example 1]", "EC50 [nM]": 1210}

Consider the additional molecule presented here.
Summary: Cc1cccc(C)c1-c1cccc(C2CCc3cc(CCC(=O)O)ccc3O2)c1 (single isomer, unassigned) [Example 4] , human GPR40 (Homo sapiens), EC50 = 544

---

EC50: recorded values
# measurement target: human GPR40 (Homo sapiens, UniProt O14842)
# Sequence (O14842 whole entry): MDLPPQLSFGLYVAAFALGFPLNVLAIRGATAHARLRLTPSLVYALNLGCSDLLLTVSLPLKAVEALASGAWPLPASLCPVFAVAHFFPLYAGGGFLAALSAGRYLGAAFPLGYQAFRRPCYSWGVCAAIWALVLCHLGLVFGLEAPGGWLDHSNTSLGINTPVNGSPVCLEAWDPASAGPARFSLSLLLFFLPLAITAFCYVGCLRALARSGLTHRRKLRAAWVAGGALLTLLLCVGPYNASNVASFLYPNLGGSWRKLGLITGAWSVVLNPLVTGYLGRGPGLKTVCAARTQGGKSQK
# run description: Inositol Phosphate Turnover (IP1) Assay 1
# assay setup: Human IP1 Assay 1, EC50, nM, HEK cells stably expressing human GPR40
Value expressed in nM; do not type the unit.

Some solved cases for reference:
{"molecule": "CC#C[C@@H](CC(=O)O)c1ccc2c(c1)CCC(c1cccc(-c3cccc4c3c(C(F)(F)F)nn4C)c1)O2 (single isomer, unassigned) [Example 42]", "measurement target": "human GPR40 (Homo sapiens, UniProt O14842)", "experimental result": 1220}
{"molecule": "Cc1cccc(C)c1-c1ccc(F)c(C2CCc3cc(CCC(=O)O)ccc3O2)n1 (racemic)", "measurement target": "human GPR40 (Homo sapiens, UniProt O14842)", "experimental result": 3630}
{"molecule": "CC#C[C@@H](CC(=O)O)c1ccc2c(c1)CCC(c1cc(-c3ccc(OC)nc3C)ccc1F)O2 (single isomer, unassigned) [Example 37]", "measurement target": "human GPR40 (Homo sapiens, UniProt O14842)", "experimental result": 47}
{"molecule": "CC#CC(CC(=O)O)c1ccc2c(c1)CCC(c1nc(-c3ccc(OC)nc3C)ccc1F)O2 (mixture of isomers)", "measurement target": "human GPR40 (Homo sapiens, UniProt O14842)", "experimental result": 4500}
{"molecule": "CC#C[C@@H](CC(=O)O)c1ccc2c(c1)CCC(c1cc(-c3ccc(OC)nc3C)ccc1F)O2 (single isomer, unassigned) [Example 38]", "measurement target": "human GPR40 (Homo sapiens, UniProt O14842)", "experimental result": 1690}

Could you now look at the following molecule, please?
Reported EC50 of CC#CC(CC(=O)O)c1ccc2c(c1)CCC(c1cccc(-c3ccccc3C(F)(F)F)c1)O2 (mixture of isomers) : 726
